The following compounds are shown together with reported growth values.
Tested on: DU-145 prostate
Test: NCI-60 one-dose screen, 48 h (100 = growth as untreated, 0 = no growth, -100 = all killed)
Details: 10 µM unless noted
This is part of a sample that, as a whole, favours compounds with a hit. Of some 83,000 tested, about 20% had one in any assay.
Response body: numeric value in %, unit text excluded.

| COMPOUND | growth (%) |
| --- | --- |
| CCN(CC)CC(O)CNc1c2ccc([N+](=O)[O-])cc2nc2cc(OC)c(OC)cc12 (centres undefined) | -29.9 |
| COc1cc(/C=N\NC(=O)CN2CCN(c3cc4c(cc3F)c(=O)c(C(=O)N/N=C/c3ccc(O)c(OC)c3)cn4C3CC3)CC2)ccc1O | 66.3 |
| COc1c(C2CC(=O)Nc3c2cnn3Cc2ccco2)cc2c(c1OC)OCO2 (centres undefined) | 5.85 |
| CCN(CC)CCCNc1cccc2c(SCc3ccccc3)ccnc12 | -22.8 |
| O=C(/C=C/c1cc2ccccc2[nH]c1=O)/C=C/c1cc2ccccc2[nH]c1=O | 10.1 |
| CN1CCN(Cc2ccc(NC(=O)c3cncc(C#Cc4cnc(N)c5cccnc45)c3)cc2C(F)(F)F)CC1 | 24.6 |
| COc1cc(OC)c(/C=C/c2cc[n+](C)c3ccccc23)c(OC)c1 | 18.5 |
| CC(C)(C)c1nn(-c2ccccc2)c2c1CC1(CN2Cc2ccc3c(c2)OCO3)C(=O)c2ccccc2C1=O | 112 |

We next turn to a different compound, shown below.
Query: Tell me the measured growth of Cc1cccc(NC(=O)c2sc3nc4c(cc3c2N)C(=O)CCC4)c1 , please.
Result: 9.01
